Examples of variants with documented exon inclusion enrichment index follow.
B1: mRNA-splicing (parent)
chain: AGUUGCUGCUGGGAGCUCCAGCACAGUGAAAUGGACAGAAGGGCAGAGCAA

Variants of: B1
test: exon inclusion enrichment index; higher = more inclusion; WT1 exon 5 minigene, HEK293
// return a plain number; no unit text

Illustrative cases are given below, each with its answer.
>  <sequence-entry>
AGUUUCUUUUGGACGCUCCAGCACAGUGAAAUGGACAGAAGGGCAGAGCAA [G5U G8U C9U G13A A14C]

>  <recorded-value>
0.61

$$$$
>  <sequence-entry>
AGUUAGGGAUGGGAGCUCCAGCACAGUGAAAUGGACAGGGGGGCAGAGCAA [G5A C6G U7G C9A A39G A40G]

>  <recorded-value>
0.0132

$$$$
>  <sequence-entry>
AGUUAGGGAUGGGAGCUCCAGCACAGUGAAAUGGACAGAUGGGCAGAGCAA [G5A C6G U7G C9A A40U]

>  <recorded-value>
0.00193

$$$$
>  <sequence-entry>
AGUUGCUGCUGGGAGCUCCAGCACAGUGAAAUGGACAGAAGGCCAGAGCAA [G43C]

>  <recorded-value>
0.209

$$$$
>  <sequence-entry>
AGUUAUAUAUGGGAGCUCCAGCACAGUGAAAUGGACAGUGGGGCAGAGCAA [G5A C6U U7A G8U C9A A39U A40G]

>  <recorded-value>
0.0054

$$$$

The recorded exon inclusion enrichment index for AGAGGCUGCUGGGAGCUCCAGCACAGUGAAAUGGACAGAAGGGCAGAGCAA [U3A U4G] is 0.0422

exon inclusion enrichment index reading for AGUUCGCGCCGGGAGCUCCAGCACAGUGAAAUGGACAGACCGGCAGAGCAA [G5C C6G U7C U10C A40C G41C] : 3.53

Per the record, AGUUAUAUAUGGGAGCGGCAGCACAGUGAAAUGGACAGAAGGGCAGAGCAA [G5A C6U U7A G8U C9A U17G C18G] has exon inclusion enrichment index of 0.0481

exon inclusion enrichment index reported for this variant AGUUAUAUAUGGGAGCUCCGGCACAGUGAAAUGGACAGAAGGGCAGAGCAA [G5A C6U U7A G8U C9A A20G] : 0.102

Data point: AGUUAAAACCGGGAGCUCCAGCACAGUGAAAUGGACAGAAGGGCAGAGCAA [G5A C6A U7A G8A U10C] ; exon inclusion enrichment index = 0.831

The variant listed as AGUUCGCGCCGCUAGCUCCAGCACAGUGAAAUGGACAGAAGGGCAGAGCAA [G5C C6G U7C U10C G12C G13U] has a reported exon inclusion enrichment index of 0.128
